Measured IC50, listed per entry for reference.
# test-system: PHF (paired helical filaments) isolated from the brain of an Alzheimer's disease patient (Homo sapiens)
# assay-overview: Competitive binding assay: displacement of primulin fluorescence from PHFs
# test-parameters: concentration that reduces the signal of 1 μM primulin to 50% of control; relative affinity; read-out: P50
# number only, unit nM dropped from output

{"columns": ["molecule", "IC50, nM"],
 "data": [
  ["Oc1ccc(/N=N/c2ccc(-c3nc4ccc(OC(F)(F)F)cc4s3)cc2)cc1 [BDF-07]", 720],
  ["Oc1ccc(/N=N/c2ccc(-c3nc4ccc(O)cc4s3)c(O)c2)c(C(F)(F)F)c1 [BDF-14]", 20],
  ["COc1ccc2nc(-c3ccc(NC(=O)c4ccc(F)c([N+](=O)[O-])c4)cc3)sc2c1 [ABMFMA-05]", 200]
]}

From here, focus on the item given below.
Query: IC50; subject: COc1ccc2nc(-c3ccc(NC(=O)c4ccccc4N(C)C)cc3)sc2c1 [ABMA-07]
1350

====

# test-system: PHF (paired helical filaments) isolated from the brain of an Alzheimer's disease patient (Homo sapiens, UniProt P10636)
# Sequence (P10636 623-708 limits assumed): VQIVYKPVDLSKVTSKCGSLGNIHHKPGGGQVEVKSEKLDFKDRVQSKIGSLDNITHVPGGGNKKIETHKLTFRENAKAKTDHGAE
# assay-overview: Competitive binding assay: displacement of primulin fluorescence from PHFs
# test-parameters: concentration that reduces the signal of 1 μM primulin to 50% of control; relative affinity; read-out: P50
# Procedure: The DSB compounds were tested for their ability to bind to PHF in a competition-style assay. If a test compound that also binds to PHFs with the same or greater affinity is added, it will displace the reference ligand and reduce the fluorescence signal. […] The assay for ligand activity was performed in 96 well plates (Nunc Cat. No. 236108). […] The concentration of PHFs added was determined for each preparation to give an adequate fluorescence signal, and was typically in the range 1-2 μl/100 μl. […]
measure-name: pIC50
Scale: pIC50 equals -log10([C]), with [C] in mol/L.

Would you please look over these solved cases?
{"columns": ["compound", "pIC50"],
 "data": [
  ["COc1ccc2nc(-c3ccc(/C=C/c4cccc(N)c4)cc3)sc2c1 [BEMOA-05]", 6.55],
  ["COc1ccc2nc(-c3ccc(NC(=O)c4ccc(Cl)nc4)cc3)sc2c1 [ABMFMA-03]", 6.47],
  ["Cc1ccc2nc(-c3ccc(/C=C/c4ccc([N+](=O)[O-])cc4)cc3)cn2c1 [IEPN-01]", 7.30],
  ["Nc1cccc(C(=O)Nc2ccc(-c3nc4ccc(O)cc4s3)cc2)c1 [ABHA-02]", 6.25]
]}

Query: pIC50; subject: COc1ccc(C(=O)Nc2ccc(-c3cn4cc(C)ccc4n3)cc2)cc1 [AIPN-13]
6.20

Query: pIC50; subject: COc1ccc2nc(-c3ccc(NC(=O)c4ccc(I)c([N+](=O)[O-])c4)cc3)sc2c1 [ABMFMA-09]
6.68

Query: pIC50; subject: CNc1ccc(C(=O)Nc2ccc(-c3cn4cc(C)ccc4n3)cc2)cc1F [AIPN-20]
6.57

Query: pIC50; subject: O=C(Nc1ccc(-c2nc3ccc(O)cc3s2)c(O)c1)c1ccc(F)cc1 [ABFHA-07]
7.00

Query: pIC50; subject: COc1cccc2sc(-c3ccc(/N=N/c4ccc(O)cc4C(F)(F)F)cc3)nc12 [BDF-13]
6.46

Query: pIC50; subject: CN(C)c1ccc2nc(-c3ccc(/N=N/c4ccc(O)cc4C(F)(F)F)cc3)sc2c1 [BDF-06]
7.40

Query: pIC50; subject: Cc1ccc2nc(-c3ccc(NC(=O)c4ccccn4)cc3)cn2c1 [AIPN-05]
6.29

Query: pIC50; subject: COc1ccc2sc(-c3ccc(/N=N/c4ccc(O)cc4C(F)(F)F)cc3)nc2c1 [BDF-11]
6.22

Query: pIC50; subject: COc1cccc2sc(-c3ccc(/N=N/c4ccc(C(F)(F)F)cc4O)cc3)nc12 [BDF-12]
6.15

Query: pIC50; subject: Cc1ccc2nc(-c3ccc(NC(=O)c4ccc(O)cc4)cc3)cn2c1 [AIPN-14]
6.30
